The measured values listed here are drawn from patent US8815857B2.

- protocol-details: Assessment of solubility: HT solubility in pION buffer, UV spectrophotometry
- conditions-used: pION system solution buffer, pH 4.5, pH 4.5, aqueous buffer, kinetic from dmso stock, Solubility (pH 4.5), pH 4.5 buffer, 16-19 h incubation, 1.0% DMSO
Would you mind telling me the reported log10 of solubility of each entry?
Units before log transform: µg/mL; reported quantity: solubility; transform: log10.

Which value of log10 of solubility has been reported for Cc1cc(C(=O)N2CCCCC2)ccc1COc1ccc(F)cc1-c1csc(N2CCC(C(=O)O)CC2)n1 [Compound 59] in the records?
-0.30

Which value of log10 of solubility has been reported for Cc1ccc(OCc2ccc(CN3CCOC(C#N)C3)cc2C#N)c(-c2csc(N3C[C@H]4CC[C@@H](C3)[C@H]4C(=O)O)n2)c1 (some centres unmarked) [Compound 355] in the records?
-0.11

Which value of log10 of solubility has been reported for Cc1ccc(OCc2ccc(C(=O)N3CCN(C)C(=O)C3)cc2C)c(-c2csc(N3CCC(C(=O)O)CC3)n2)c1 [Compound 349] in the records?
0.81

Which value of log10 of solubility has been reported for Cc1ccc(OCc2ccc(C(=O)N3CCCCC3)cc2C)c(-c2csc(N[C@H]3CC[C@@H](C(=O)O)C3)n2)c1 [Compound 40] in the records?
0.36

Which value of log10 of solubility has been reported for Cc1cc(CN2CCS(=O)(=O)CC2)ccc1COc1ccc(Cl)cc1-c1csc(N2CCC(C(=O)O)CC2C)n1 (centres unmarked) [Compound 143] in the records?
-0.70

Which value of log10 of solubility has been reported for Cc1ccc(OCc2ccc(C(=O)N(C)CCC(C)(C)O)cc2C)c(-c2csc(N3C[C@H]4CC[C@@H](C3)[C@H]4C(=O)O)n2)c1 [Compound 348] in the records?
-0.57

Which value of log10 of solubility has been reported for Cc1ccc(OCc2ccc(CN3CCN(C(=O)C4CC4)CC3)cc2C)c(-c2csc(N3CC[C@@]4(C(=O)O)C[C@H]4C3)n2)c1 [Compound 225] in the records?
0.66

Which value of log10 of solubility has been reported for Cc1cc(CN2CCS(=O)(=O)CC2)ccc1COc1ccc(F)cc1-c1csc(N2CCC(C(=O)O)CC2C)n1 (centres unmarked) [Compound 131] in the records?
-0.82

Which value of log10 of solubility has been reported for Cc1ccc(OCc2ccc(C(=O)N(C)CCO)cc2C)c(-c2csc(N3C[C@H]4CC[C@@H](C3)[C@H]4C(=O)O)n2)c1 [Compound 297] in the records?
0.23
